- tested system: Kappa-type opioid receptor (Homo sapiens)
- Sequence (P41145 whole entry): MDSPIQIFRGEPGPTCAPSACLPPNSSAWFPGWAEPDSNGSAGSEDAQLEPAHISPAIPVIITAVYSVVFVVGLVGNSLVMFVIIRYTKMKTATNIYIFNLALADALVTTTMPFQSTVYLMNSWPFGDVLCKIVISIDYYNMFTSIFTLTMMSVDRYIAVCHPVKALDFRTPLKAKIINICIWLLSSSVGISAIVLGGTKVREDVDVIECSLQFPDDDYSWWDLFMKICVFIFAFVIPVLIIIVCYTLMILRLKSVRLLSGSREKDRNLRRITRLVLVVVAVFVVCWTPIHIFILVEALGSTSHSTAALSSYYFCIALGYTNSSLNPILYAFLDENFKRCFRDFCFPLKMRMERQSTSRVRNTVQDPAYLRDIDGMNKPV
- assay remarks: Agonist activity at human kappa opioid receptor expressed in CHO cell membrane assessed as stimulation of [35S]GTPgammaS binding relative to U69593
- Type: functional, cell membranes
quantity measured: Activity (%)

# structure, quantity measured, recorded value
rows = [
    ("C=CCO[C@@]12CC[C@@H](NC(=O)/C=C/c3ccccc3)[C@@H]3Oc4c(O)ccc5c4[C@@]31CCN(CC1CC1)[C@@H]2C5", "Activity", 120),
    ("O=C(/C=C/c1ccccc1)N[C@@H]1CC[C@@]2(OC(=O)Cc3ccccc3)[C@H]3Cc4ccc(O)c5c4[C@@]2(CCN3CC2CC2)[C@H]1O5", "Activity", 76),
    ("O=C(/C=C/c1ccccc1)N[C@@H]1CC[C@@]2(OCc3ccccc3)[C@H]3Cc4ccc(O)c5c4[C@@]2(CCN3CC2CC2)[C@H]1O5", "Activity", 97),
    ("O=C(/C=C/c1ccccc1)N[C@@H]1CC[C@@]2(OC(=O)c3ccccc3)[C@H]3Cc4ccc(O)c5c4[C@@]2(CCN3CC2CC2)[C@H]1O5", "Activity", 26),
    ("O=C(/C=C/c1ccccc1Cl)N[C@@H]1CC[C@@]2(O)[C@H]3Cc4ccc(O)c5c4[C@@]2(CCN3CC2CC2)[C@H]1O5", "Activity", 97),
    ("COc1ccccc1/C=C/C(=O)N[C@@H]1CC[C@@]2(O)[C@H]3Cc4ccc(O)c5c4[C@@]2(CCN3CC2CC2)[C@H]1O5", "Activity", 105),
]
